test system: CAKI-1; assay: NCI tumour cell line growth inhibition, 48 h
Calls of active or inactive are those of the source. No stated cut-off is given here; in the data, active = GI50 up to about 1.1 µM and inactive = higher.
Answer with one of the outcomes t (active), f (inactive)

Example results:
compound	group
CC(C)(C)c1cc(COc2cc(COc3ccc(-c4c5c(nc6c4CCc4ccc(-c7c8ccccc8nc8ccccc78)cc4-6)-c4cc(-c6c7ccccc7nc7ccccc67)ccc4CC5)cc3)cc(OCc3cc(C(C)(C)C)cc(C(C)(C)C)c3)c2)cc(C(C)(C)C)c1	f
C[C@]12CCC(O)CC1=CC[C@@H]1[C@@H]2CC[C@]2(C)C(O)[C@H](n3ccnc3)C[C@@H]12 (stereo partly specified)	f
O=C1C=CC=C/C1=C1\N=C(c2ccccc2OCC(=O)c2ccc(Br)cc2)SS1	f

Each compound tested received a call. Report the one for Cc1ccc2c(sc(-c3ccc4c(c3)sc(-c3ccc(N(C)C)cc3)[n+]4C)[n+]2C)c1S(=O)(=O)O.Cc1ccc2c(sc(-c3ccc4c(c3)sc(-c3ccc5c(c3)sc(-c3ccc(N(C)C)cc3)[n+]5C)[n+]4C)[n+]2C)c1S(=O)(=O)O . f
